Where these numbers come from: patent US11873298B2

The following compounds are shown together with reported pIC50 values.
experimental-target: SCD1 (Homo sapiens, UniProt O00767)
Construct: host or cells: S. cerevisiae ole1Δ strain (W303 pdr1Δ pdr3Δ background), plasmid pRS316 with TDH3 promoter and CYC1 terminator
Sequence (O00767 whole entry): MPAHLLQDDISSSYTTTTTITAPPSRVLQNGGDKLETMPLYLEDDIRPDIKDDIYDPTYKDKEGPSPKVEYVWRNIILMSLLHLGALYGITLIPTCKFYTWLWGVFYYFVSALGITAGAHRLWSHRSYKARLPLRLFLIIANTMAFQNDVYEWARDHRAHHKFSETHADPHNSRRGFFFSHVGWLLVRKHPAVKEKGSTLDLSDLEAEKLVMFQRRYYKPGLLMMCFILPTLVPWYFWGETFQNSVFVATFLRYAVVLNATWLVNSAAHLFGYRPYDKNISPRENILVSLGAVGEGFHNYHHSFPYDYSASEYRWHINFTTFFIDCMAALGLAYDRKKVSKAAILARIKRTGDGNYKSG
assay-overview: Growth inhibition of humanized yeast strain expressing SCD1 as sole desaturase
Type: cell-based
condition-summary: humanized yeast strain, 40 h
pIC50: −log10 of the molar value.

These solved cases illustrate the format of a correct answer.
CC(C)(C)OC(=O)N1CCC(c2noc(-c3ccc(F)c(N4CCOCC4)c3)n2)CC1 :: < 4.35
CC(=O)N1CC(n2cc3ccc(-c4nc(N5CCN(C(=O)OC(C)(C)C)CC5)no4)cc3n2)C1 :: < 4.35
O=C(C1CCC1)N1CCCN(c2noc(-c3ccc4cnn(C5COC5)c4c3)n2)CC1 :: < 4.35
COC(=O)N1CCC(c2nc(-c3ccc4cnn([C@H]5CCOC5)c4c3)no2)CC1 :: < 4.35
CC(C)c1ncn2ccc(-c3nc(C4CCN(C(=O)OC(C)(C)C)CC4)no3)cc12 :: < 4.35
CC(C)C(=O)N1CCC(c2noc(-c3ccnc(NC4COC4)c3)n2)CC1 :: 5.71

Dear colleague, I am looking for the recorded pIC50 of the following compound: `O=C(N1CCN(c2noc(-c3ccnc(NC4COC4)c3)n2)CC1)C1(F)CC1`
< 4.35

Dear colleague, I am looking for the recorded pIC50 of the following compound: `Cn1ccc(-c2cc(-c3nc(C4CCN(C(=O)OC(C)(C)C)CC4)no3)ccn2)n1`
< 4.35

Dear colleague, I am looking for the recorded pIC50 of the following compound: `COC(=O)N1CCC(c2noc(-c3ccn4cnc(C(C)C)c4c3)n2)CC1`
≤ 4.35

Dear colleague, I am looking for the recorded pIC50 of the following compound: `CC(C)(C)OC(=O)N1CCC(c2noc(N3CCc4c(cnn4C4COC4)C3)n2)CC1`
≤ 4.35

Dear colleague, I am looking for the recorded pIC50 of the following compound: `CC(=O)N1CC(n2ncc3ccc(-c4nc(C5CCN(C(=O)OC(C)(C)C)CC5)no4)cc32)C1`
4.83

Dear colleague, I am looking for the recorded pIC50 of the following compound: `O=C(C1CC2(CC2)C1)N1CCC(c2noc(-c3ccc4oc(=O)n(C5COC5)c4c3)n2)CC1`
< 4.35

Dear colleague, I am looking for the recorded pIC50 of the following compound: `O=C(C1CCC1)N1CCC(c2noc(-c3ccc4oc(=O)n(C5COC5)c4c3)n2)CC1`
< 4.35

Dear colleague, I am looking for the recorded pIC50 of the following compound: `CC(C)(C)OC(=O)N1CC=C(c2nsc(-c3ccc4cnn(C5COC5)c4c3)n2)CC1`
< 4.35

* * *

experimental-target: SCD1 (Homo sapiens)
Construct: host or cells: S. cerevisiae ole1Δ strain (W303 pdr1Δ pdr3Δ background), plasmid pRS316 with TDH3 promoter and CYC1 terminator
assay-overview: Growth inhibition of humanized yeast strain expressing SCD1 as sole desaturase
Type: cell-based
condition-summary: humanized yeast strain, 40 h
The following compounds are shown together with reported IC50 values.

Dear colleague, I am looking for the recorded IC50 of the following compound: `O=C(c1ccccc1F)N1CCC(c2noc(-c3ccnc(NC4COC4)c3)n2)CC1`
> 45 µM

Dear colleague, I am looking for the recorded IC50 of the following compound: `CC(C)(C)OC(=O)N1CCC(c2nc(-c3ccc4cnn(C5CC(=O)C5)c4c3)no2)CC1`
31.5 µM

Dear colleague, I am looking for the recorded IC50 of the following compound: `CC(C)C(=O)N1CCC(c2noc(-c3ccc4oc(=O)n(C5COC5)c4c3)n2)CC1`
> 45 µM

Dear colleague, I am looking for the recorded IC50 of the following compound: `CC(C)(C)OC(=O)N1CCC(c2noc(-c3ccc4cnn(C5COC5)c4c3)n2)CC1`
3.25 µM

Dear colleague, I am looking for the recorded IC50 of the following compound: `COC(=O)N1CCC(c2noc(-c3ccnc(OC4COC4)c3)n2)CC1`
> 45 µM

Dear colleague, I am looking for the recorded IC50 of the following compound: COC(=O)N1CCN(c2nc(-c3cccc(C4CCOC4)c3)no2)CC1 (centres unmarked)
> 45 µM

Dear colleague, I am looking for the recorded IC50 of the following compound: `COC(=O)N1CCC(c2nc(-c3ccc4cn[nH]c4c3)no2)CC1`
> 45 µM

Dear colleague, I am looking for the recorded IC50 of the following compound: `COCC(C)(C)n1ncc2ccc(-c3noc(C4CCN(C(=O)CC(C)(C)C)CC4)n3)cc21`
> 45 µM

Dear colleague, I am looking for the recorded IC50 of the following compound: `CC(C)(C)OC(=O)N1CCC(c2noc(-c3cc(N4CCOCC4)ccc3F)n2)CC1`
> 45 µM

* * *

The following molecules are shown together with reported OLE1 % Max Inhibition values.
experimental-target: Ole1 (Saccharomyces cerevisiae)
Construct: expressed in transfected cells; host or cells: S. cerevisiae ole1Δ strain (W303 pdr1Δ pdr3Δ background), plasmid pRS316 with TDH3 promoter and CYC1 terminator
Sequence (P21147 whole entry): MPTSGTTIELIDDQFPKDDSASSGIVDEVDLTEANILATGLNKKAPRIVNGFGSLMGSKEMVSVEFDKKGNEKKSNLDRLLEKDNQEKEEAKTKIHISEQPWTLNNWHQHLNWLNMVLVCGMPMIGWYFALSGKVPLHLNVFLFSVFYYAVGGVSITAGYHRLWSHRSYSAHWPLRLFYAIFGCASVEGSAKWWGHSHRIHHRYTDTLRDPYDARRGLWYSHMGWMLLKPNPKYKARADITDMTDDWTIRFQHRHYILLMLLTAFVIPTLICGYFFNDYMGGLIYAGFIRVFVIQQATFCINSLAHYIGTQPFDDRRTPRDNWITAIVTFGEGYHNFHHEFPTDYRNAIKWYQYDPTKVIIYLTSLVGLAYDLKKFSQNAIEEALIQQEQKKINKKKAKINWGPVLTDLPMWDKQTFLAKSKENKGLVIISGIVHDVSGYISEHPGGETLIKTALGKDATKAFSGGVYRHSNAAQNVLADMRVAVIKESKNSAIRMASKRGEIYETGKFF
assay-overview: Growth inhibition of yeast strain expressing Ole1 as sole desaturase
Assay type: cell-based
condition-summary: yeast strain expressing Ole1 as sole desaturase
Write it as a number; the unit % goes unstated.

These solved cases illustrate the format of a correct answer.
Cc1nn(C)c2cc(-c3noc(C4CCN(C(=O)[C@@H]5CN(c6ccccc6)C(=O)O5)CC4)n3)ccc12 :: 90.68
Cc1nn(C)c2cc(-c3noc(C4CCN(C(=O)[C@H](NC(=O)c5ccccc5)C5CC5)CC4)n3)ccc12 :: 89.31
COc1ccc(-c2noc(C3CCN(C(=O)CNCc4ccccc4)CC3)n2)cc1OC :: 100.46

// lookup OLE1 % Max Inhibition | system=Ole1 (Saccharomyces cerevisiae) | key= `Cc1nnc(C)c2cc(-c3noc(C4CCN(C(=O)CNC(=O)c5ccccc5)CC4)n3)ccc12`
34.19

* * *

experimental-target: SCD1 (Homo sapiens, UniProt O00767)
Construct: host or cells: S. cerevisiae ole1Δ strain (W303 pdr1Δ pdr3Δ background), plasmid pRS316 with TDH3 promoter and CYC1 terminator
assay-overview: Growth inhibition of humanized yeast strain expressing SCD1 as sole desaturase
Format: cell-based
condition-summary: humanized yeast strain expressing SCD1
pIC50: −log10 of the molar value.
experimental-endpoint: pIC50

These solved cases illustrate the format of a correct answer.
CC(C)(CO)n1cc2ccc(-c3noc(C4CCN(C(=O)C5CC(=O)N(c6ccccc6)C5)CC4)n3)cc2n1 (stereo not shown) [Compound 201] :: < 4.35
Cc1nn(C)c2cc(-c3noc(C4CCN(C(=O)[C@H]5CC(=O)N(c6ccccc6)C5)CC4(F)F)n3)ccc12 (stereo partly shown) [Compound 241] :: < 4.35
CC(C)n1ncc2ccc(-c3nc(N4CCN(C(=O)c5ccccc5Cl)CC4)no3)cc21 [Compound 580] :: 4.85
CC(C)n1ncc2ccc(-c3noc(C4CCN(C(=O)CNC(=O)c5ccc(Cl)cc5)CC4(F)F)n3)cc21 (stereo not shown) [Compound 521] :: < 4.35
COc1cccc(-c2noc(C3CC(=O)N(c4ccc(C)c(C)c4)C3)n2)c1 (stereo not shown) [Compound 490] :: 4.41
Cc1nn(C)c2cc(-c3noc(N4CCN(C(=O)c5cc(F)ccc5C(F)(F)F)CC4)n3)ccc12 [Compound 293] :: < 4.35

// lookup pIC50 | system=SCD1 (Homo sapiens, UniProt O00767) | key= CC(C)n1ncc2ccc(-c3nc(C4CCN(C(=O)CC(C)(C)C)C4)no3)cc21 (stereo not shown) [Compound 542]
< 4.35

* * *

experimental-target: SCD5 (Homo sapiens)
Construct: host or cells: S. cerevisiae ole1Δ strain (W303 pdr1Δ pdr3Δ background), plasmid pRS316 with TDH3 promoter and CYC1 terminator
Sequence (Q86SK9 1-330): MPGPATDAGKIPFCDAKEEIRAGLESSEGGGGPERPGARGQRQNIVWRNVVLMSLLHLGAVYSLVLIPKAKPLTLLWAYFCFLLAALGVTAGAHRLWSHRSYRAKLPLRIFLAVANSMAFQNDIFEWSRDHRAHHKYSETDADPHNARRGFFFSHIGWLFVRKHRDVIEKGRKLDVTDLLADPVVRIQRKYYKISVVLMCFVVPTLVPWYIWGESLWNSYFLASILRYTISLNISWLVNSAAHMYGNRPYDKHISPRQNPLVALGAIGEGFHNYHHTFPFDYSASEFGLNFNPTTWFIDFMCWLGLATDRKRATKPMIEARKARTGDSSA
assay-overview: Growth inhibition of humanized yeast strain expressing SCD5 as sole desaturase
Type: cell-based
condition-summary: humanized yeast strain expressing SCD5
So basically: SCD5 % Max Inhibition at 10% or higher? That is True. Lower than 10%? That is False.

Cc1nn(C)c2cc(-c3noc(N4CCN(C(=O)c5cccc(F)c5)CC4)n3)ccc12 :: True
COc1ccc(-c2noc(C3CCN(C(=O)[C@@H](CO)NC(=O)c4ccccc4)CC3)n2)cc1OC :: True
CCOC(=O)N1CCC(c2nc(-c3ccc4cnn(C(C)C)c4c3)no2)CC1 :: False
Cc1nn(C)c2nc(-c3noc(C4CCN(C(=O)C5CC(=O)N(c6ccccc6)C5)CC4)n3)ccc12 (stereo not shown) :: False
Cc1c2cc(-c3noc(C4CCN(C(=O)c5ccc(C(C)C)cc5)CC4)n3)ccc2nn1C :: True
O=C(NCC(=O)N1CCC(c2nc(-c3ccccc3F)no2)CC1)c1ccccc1 :: True
Cc1nn(C)c2cc(-c3nsc(C4CCN(C(=O)OC(C)(C)C)CC4)n3)ccc12 :: True
CC(C)n1cc(-c2noc(C3CCN(C(=O)C4CC(=O)N(c5cccc(Cl)c5)C4)CC3)n2)cn1 (stereo not shown) :: True

Given `Cc1nn(C)c2cc(-c3nc([C@@H]4C[C@H]5CC[C@@H](C4)N5C(=O)OC(C)(C)C)no3)ccc12` , state whether its SCD5 % Max Inhibition is at least 10%.
True

Given `CC(C)(CO)n1ncc2ccc(-c3noc(C4CCN(C(=O)CNC(=O)c5ccccc5)CC4)n3)cc21` , state whether its SCD5 % Max Inhibition is at least 10%.
True

Given `Cc1nn(C)c2cc(-c3noc(N4CCN(C(=O)c5ccccc5C(F)(F)F)CC4)n3)ccc12` , state whether its SCD5 % Max Inhibition is at least 10%.
False

Given `Cc1nn(C)c2cc(-c3noc(N4CCC(C(=O)N5CCO[C@@H](c6ccccc6)C5)CC4)n3)ccc12` , state whether its SCD5 % Max Inhibition is at least 10%.
False

Given `CC(C)OC(=O)N1CCC(c2nc(-c3ccc4cnn(C(C)C)c4c3)no2)CC1` , state whether its SCD5 % Max Inhibition is at least 10%.
False

Given `CCOc1ccc(-c2noc(C3CCN(C(=O)CN4Cc5cc(F)ccc5C4=O)CC3)n2)cc1OC` , state whether its SCD5 % Max Inhibition is at least 10%.
True

Given CC(C)(CO)n1cc2ccc(-c3noc(C4CCN(C(=O)C5CC(=O)N(c6ccccc6)C5)CC4)n3)cc2n1 (stereo not shown) , state whether its SCD5 % Max Inhibition is at least 10%.
True
